Each recorded value in this set is attributed to patent US20190048074A1.

- Study system: T1, full-length human APLNR (human, UniProt P35414 1-380)
- T1 construct: Stably expressed on HEK293/CRE-luc/hAPLNR cells (FACS, CRE-luc assays) and on CHO/hAPLNR cells (pERK assays); also called hAPLNR; apelin receptor
- T1 sequence: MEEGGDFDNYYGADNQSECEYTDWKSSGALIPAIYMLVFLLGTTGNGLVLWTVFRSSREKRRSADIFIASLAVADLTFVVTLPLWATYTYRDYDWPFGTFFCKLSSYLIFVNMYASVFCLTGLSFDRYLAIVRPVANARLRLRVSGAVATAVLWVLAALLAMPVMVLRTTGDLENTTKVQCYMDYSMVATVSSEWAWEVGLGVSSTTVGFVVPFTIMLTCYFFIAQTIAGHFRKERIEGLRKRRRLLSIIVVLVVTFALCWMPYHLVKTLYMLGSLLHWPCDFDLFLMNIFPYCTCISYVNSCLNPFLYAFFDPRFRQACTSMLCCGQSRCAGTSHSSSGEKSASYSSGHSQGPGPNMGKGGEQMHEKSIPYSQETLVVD
- Protocol summary: FACS, 10 µg/mL antibody, HEK293/CRE-luc/hAPLNR cells
Measure name: Binding Ratio of Geom. Mean to Unstained Cells (fold)
Give bare numbers, in fold.

query: Tell me its Binding Ratio of Geom. Mean to Unstained Cells given H2aM9230N (antibody, V domains shown, Human variable domains, mouse IgG2a Fc) VH: EVQLVESGGGLVQPGGSLRLSCAASGFTFSSFWMSWVRQVPGKGLQWVANIKQDGSEKYYVDSVKGRFTISRDNAKNSLYLQMNSLRAEDTAVYYCARDRFGYSVYDKGVRYYYGMDVWGQGTTVTVSS VL: DIQMTQSPSSLSVSVGDRVTITCRASQGIRNDLGWYQQKPGKAPKRLIYAASSLQSGVPSRFSGSGSGTEFTLTISGLQSEDFATYYCLQHKSYPRTFGQGTKVEIK as the entry.
result: 2940
